Measured values drawn from ChEMBL document CHEMBL1124770 for this set.

Quick reference for Immobility among some compounds
# Test system: Mus musculus
# assay-notes: Evaluated for catalepsy activity in mice and percentage immobility was determined at a concentration of 0 mg/Kg.
# Format: functional
Respond with the bare value in %.

Guide cases for Immobility, answers given:
Check Mus musculus data and give Immobility for CCCCCc1cc(O)c2c(c1)OC(C)(CNCC)[C@@H]1CC=C(C)CC21 (some centres not stated) . 13

Check Mus musculus data and give Immobility for CCCCCc1cc(O)c2c(c1)OC(C)(C)[C@@H]1CC=C(CN(CCCl)CCCl)CC21 (some centres not stated) . 4

Check Mus musculus data and give Immobility for C=C(CNCC)[C@@H]1CCC(C)=CC1c1c(O)cc(CCCCC)cc1O (some centres not stated) . 4

Check Mus musculus data and give Immobility for C=C(C)[C@@H]1CCC(C)=CC1c1c(O)cc(O)cc1CCCCC (some centres not stated) . 4

Check Mus musculus data and give Immobility for CCCCCc1cc(OC(C)=O)c2c(c1)OC(C)(C)[C@@H]1CC=C(CN(CCCl)CCCl)CC21.Cl (some centres not stated) . 4

***
Check Mus musculus data and give Immobility for CCCCCc1cc(O)c2c(c1)OC(C)(C)[C@@H]1CCC(C)=C[C@@H]21 [DRONABINOL] . 8

Check Mus musculus data and give Immobility for CCCCCc1cc(O)c2c(c1)OC(C)(CN)[C@@H]1CC=C(C)CC21 (some centres not stated) . 13
